The values you see were collected from patent US8148391B2.

Overview of reported pIC50 across a group of molecules:
Tested system: baculovirus-expressed ALK (Homo sapiens)
Construct: host or cells: baculovirus expression system
Assay overview: ALK Kinase Assay (ELISA-type, time-resolved fluorescence)
Assay type: biochemical
Condition info: 1 μM ATP (Km level), 30 ng/ml ALK, 37° C., 15 minutes; read-out: ALK Activity (ALK kinase inhibition, IC50 class)
pIC50: −log10 of the molar value.

Below, each entry is followed by its recorded pIC50 result.
# Molecule, pIC50
records = [
    ("CCN1C(=O)CCCc2ccc(Nc3ncc(Cl)c(Nc4ccc(CC#N)cc4)n3)cc21", "6.00 to 7.00"),
    ("C#CCN(C)C(=O)c1ccccc1Nc1nc(Nc2ccc3c(c2)CCN(CCOC)CC3)ncc1Cl", "> 7.00"),
    ("CCN1C(=O)CCC(C)(C)c2ccc(Nc3ncc(Cl)c(Nc4c(F)cccc4S(C)(=O)=O)n3)cc21", "6.00 to 7.00"),
    ("CCN1C(=O)[C@H](NC(=O)CN(C)C)CCc2c1ccc(Nc1ncc(Cl)c(N[C@H]3[C@@H](C(N)=O)[C@@H]4C=C[C@H]3C4)n1)c2OC (single isomer, unassigned)", "> 7.00"),
    ("COc1cc2c(cc1Nc1ncc(Cl)c(Nc3ccccc3S(=O)(=O)N3CCC(O)C3)n1)CCC(NCCO)CC2 (stereo not shown)", "> 7.00"),
    ("COc1cc2c(cc1Nc1ncc(Cl)c(Nc3ccc(N4CCOCC4)cc3OC)n1)CCN(C(CF)CF)CC2", "> 7.00"),
]

Here's the next entry for you.
The molecule identified as COc1cc2c(cc1Nc1ncc(Cl)c(Nc3ccc(N4CCOCC4)cc3OC)n1)CCN(Cc1ncco1)CC2 registered its pIC50 at > 7.00

---

// IC50 lookup, one value per entry
Tested system: baculovirus-expressed ALK (Homo sapiens)
Construct: host or cells: baculovirus expression system
Assay overview: ALK Kinase Assay (ELISA-type, time-resolved fluorescence)
Format: biochemical
Condition info: ALK kinase inhibition, 1 μM ATP (Km level); read-out: ALK Activity

Examples from the recorded data:
# Compound, Test result
rows = [
    ("CNC(=O)c1cccc(C)c1Nc1nc(Nc2ccc3c(c2)CCN(CCOC)CC3)ncc1Cl", "100 to 1000 nM"),
    ("CCN1CCc2ccc(Nc3ncc(Cl)c(N[C@H]4CCCC[C@H]4C(=O)NC)n3)cc2CC1 (relative stereo)", "< 100 nM"),
    ("COc1cc2c(cc1Nc1ncc(Cl)c(N[C@@H]3CCCC[C@H]3NS(C)(=O)=O)n1)CCN(C[C@H](O)C(F)(F)F)CC2", "< 100 nM"),
]

Attention now shifts to the item below.
Given the compound CNC(=O)c1ccccc1Nc1nc(Nc2ccc3c(c2)C2CC3CN(S(C)(=O)=O)C2)ncc1Cl (stereo not shown) and test system baculovirus-expressed ALK (Homo sapiens), the measured IC50 is 100 to 1000 nM

---

Tested system: c-Met (cytoplasmic domain) (Homo sapiens, UniProt P08581)
Construct: 10 ng/mL c-Met (cytoplasmic domain, Invitrogen Corporation #PV3143); purchased Invitrogen Corporation PV3143
Sequence (P08581 956-1390 limits assumed): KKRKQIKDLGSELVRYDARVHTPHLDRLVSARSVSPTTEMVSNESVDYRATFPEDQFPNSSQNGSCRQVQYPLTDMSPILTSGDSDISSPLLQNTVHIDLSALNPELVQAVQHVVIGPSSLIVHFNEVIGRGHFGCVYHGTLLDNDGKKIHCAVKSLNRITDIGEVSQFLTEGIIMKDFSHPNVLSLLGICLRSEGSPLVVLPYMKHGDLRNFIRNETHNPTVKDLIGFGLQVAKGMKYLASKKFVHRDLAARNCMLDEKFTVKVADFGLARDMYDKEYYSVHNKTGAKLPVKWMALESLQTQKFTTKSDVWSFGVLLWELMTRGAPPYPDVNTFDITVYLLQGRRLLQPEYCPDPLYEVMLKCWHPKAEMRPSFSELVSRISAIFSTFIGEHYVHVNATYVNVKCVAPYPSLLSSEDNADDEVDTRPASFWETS
Assay overview: c-Met Kinase Assay (same methods as for ALK, with modifications)
Format: biochemical
Condition info: 1 μM ATP (Km level); read-out: cMet Activity (c-Met Kinase Inhibition, IC50)
// reported IC50 for each item listed

Example entries begin here.
# Compound, IC50
measured = [
    ("CC1(C)CCC(=O)Nc2ccc(Nc3ncc(Cl)c(Nc4ccccc4-c4ncccn4)n3)cc21 [Example 976]", "> 10 µM"),
    ("COCCN1CCc2cc(Nc3ncc(Cl)c(Nc4ccc(OC)cc4-n4cccn4)n3)c(OC)cc2CC1 [Example 612]", "> 10 µM"),
    ("Cn1ccnc1-c1ccccc1Nc1nc(Nc2ccc3c(c2)CCC(NCC(F)F)CC3)ncc1Cl (stereo not shown) [Example 661]", "0.1 to 1 µM"),
]

Here is the next item to consider.
Consider COCCN1CCc2ccc(Nc3ncc(Cl)c(Nc4ccccc4-c4nccn4CCOC)n3)cc2CC1 [Example 981] . Its measured IC50 is 1 to 10 µM

---

Reported pIC50 is given for each of the following compounds.
Tested system: c-Met (cytoplasmic domain) (Homo sapiens, UniProt P08581)
Construct: 10 ng/mL c-Met (cytoplasmic domain, Invitrogen Corporation #PV3143); purchased Invitrogen Corporation PV3143
Assay overview: c-Met Kinase Assay (same methods as for ALK, with modifications)
Type: biochemical
Condition info: cMet Activity (c-Met Kinase Inhibition, IC50), 1 μM ATP (Km level)
pIC50: −log10 of the molar value.

Record excerpt, results attached:
# Compound, Test result
data = [
    ("COCCNC1CCCc2c(ccc(Nc3ncc(Cl)c(N[C@H]4[C@@H](C(N)=O)[C@@H]5C=C[C@H]4C5)n3)c2OC)C1 (stereo partly shown)", "< 5.00"),
    ("COc1c(Nc2ncc(Cl)c(N[C@H]3[C@@H](C(N)=O)[C@@H]4C=C[C@H]3C4)n2)ccc2c1CCCC(N1CCOCC1)C2 (single isomer, unassigned)", "< 5.00"),
    ("COc1c(Nc2ncc(Cl)c(N[C@H]3[C@@H](C(N)=O)[C@@H]4C=C[C@H]3C4)n2)ccc2c1CC[C@H](N1CCOCC1)CC2", "< 5.00"),
]

Kindly consider the entry below.
Query COc1c(Nc2ncc(Cl)c(N[C@H]3[C@@H](C(N)=O)[C@@H]4C=C[C@H]3C4)n2)ccc2c1CC[C@@H](N1CCOCC1)CC2 yields pIC50 of < 5.00

---

The entries below come with measured IC50 values attached.
Tested system: c-Met (cytoplasmic domain) (Homo sapiens, UniProt P08581)
Construct: 10 ng/mL c-Met (cytoplasmic domain, Invitrogen Corporation #PV3143); purchased Invitrogen Corporation PV3143
Assay overview: c-Met Kinase Assay (same methods as for ALK, with modifications)
Type: biochemical
Condition info: 1 μM ATP (Km level), 10 ng/mL c-Met; read-out: cMet Activity (c-Met kinase inhibition, IC50 class)

# Molecule, IC50
rows = [
    ("COc1cc2c(cc1Nc1ncc(Cl)c(Nc3ccccc3S(=O)(=O)C(C)C)n1)CCC(NCCO)CC2 (centres unmarked)", "1 to 10 µM"),
]

IC50 reported for this molecule COc1cc2c(cc1Nc1ncc(Cl)c(Nc3ccccc3S(=O)(=O)C(C)C)n1)CCN(CC(=O)N(C)C)CC2 : 1 to 10 µM

Summary for this molecule, CNC(=O)c1ccccc1Nc1nc(Nc2cc3c(cc2OC)CCC(NCCO)CC3)ncc1Cl (centres unmarked) : IC50 is > 10 µM

Record CCN1C(=O)CCC(C)(C)c2ccc(Nc3ncc(Cl)c(Nc4c(F)cccc4S(=O)(=O)C(C)C)n3)cc21 , field IC50: 1 to 10 µM

---

Tested system: baculovirus-expressed ALK (Homo sapiens, UniProt Q9UM73)
Construct: host or cells: baculovirus expression system
Sequence (Q9UM73 19-1620): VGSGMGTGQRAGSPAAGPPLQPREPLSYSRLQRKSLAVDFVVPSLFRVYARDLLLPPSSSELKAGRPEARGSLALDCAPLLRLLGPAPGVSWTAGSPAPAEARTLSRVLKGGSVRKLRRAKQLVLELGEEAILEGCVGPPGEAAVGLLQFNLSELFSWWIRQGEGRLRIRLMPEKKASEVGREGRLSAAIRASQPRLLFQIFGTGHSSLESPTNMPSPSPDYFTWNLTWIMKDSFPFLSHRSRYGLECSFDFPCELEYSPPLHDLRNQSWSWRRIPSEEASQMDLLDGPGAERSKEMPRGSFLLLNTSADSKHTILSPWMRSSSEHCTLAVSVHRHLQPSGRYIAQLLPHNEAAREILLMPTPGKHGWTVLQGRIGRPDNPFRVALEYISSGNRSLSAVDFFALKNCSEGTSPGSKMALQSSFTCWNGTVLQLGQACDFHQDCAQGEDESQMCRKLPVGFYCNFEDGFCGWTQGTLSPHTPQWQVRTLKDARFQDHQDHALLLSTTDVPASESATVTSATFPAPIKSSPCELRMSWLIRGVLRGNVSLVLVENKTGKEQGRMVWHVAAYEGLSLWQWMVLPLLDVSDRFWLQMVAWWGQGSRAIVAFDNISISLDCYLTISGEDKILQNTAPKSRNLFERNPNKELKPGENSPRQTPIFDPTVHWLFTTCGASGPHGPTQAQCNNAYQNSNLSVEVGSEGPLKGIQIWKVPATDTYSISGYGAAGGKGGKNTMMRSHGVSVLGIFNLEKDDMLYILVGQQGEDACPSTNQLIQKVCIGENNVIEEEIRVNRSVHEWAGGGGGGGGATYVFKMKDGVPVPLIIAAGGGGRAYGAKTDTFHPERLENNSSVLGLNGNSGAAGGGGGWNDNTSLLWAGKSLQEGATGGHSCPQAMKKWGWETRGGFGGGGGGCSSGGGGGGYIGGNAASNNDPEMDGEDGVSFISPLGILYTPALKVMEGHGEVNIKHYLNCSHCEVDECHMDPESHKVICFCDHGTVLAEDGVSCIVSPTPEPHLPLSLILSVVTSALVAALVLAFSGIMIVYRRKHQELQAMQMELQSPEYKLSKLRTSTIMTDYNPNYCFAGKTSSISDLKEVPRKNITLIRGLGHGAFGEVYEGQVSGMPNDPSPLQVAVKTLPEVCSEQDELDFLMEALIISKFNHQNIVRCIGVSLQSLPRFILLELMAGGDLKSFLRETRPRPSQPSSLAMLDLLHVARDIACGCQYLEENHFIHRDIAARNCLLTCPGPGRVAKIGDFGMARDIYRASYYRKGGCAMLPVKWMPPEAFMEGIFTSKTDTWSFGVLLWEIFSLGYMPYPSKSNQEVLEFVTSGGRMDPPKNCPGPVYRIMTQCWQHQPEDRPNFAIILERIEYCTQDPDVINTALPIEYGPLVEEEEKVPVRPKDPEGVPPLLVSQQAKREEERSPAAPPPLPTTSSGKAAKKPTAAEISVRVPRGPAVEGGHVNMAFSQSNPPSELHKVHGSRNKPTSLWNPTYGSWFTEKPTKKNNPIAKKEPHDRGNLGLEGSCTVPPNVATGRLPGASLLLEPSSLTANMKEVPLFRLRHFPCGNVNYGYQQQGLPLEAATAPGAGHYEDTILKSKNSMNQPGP
Assay overview: ALK Kinase Assay (ELISA-type, time-resolved fluorescence)
Assay type: biochemical
Condition info: ALK kinase inhibition, 1 μM ATP (Km level); read-out: ALK Activity
pIC50: −log10 of the molar value.
Quantity: pIC50

# Molecule, Test result
measured = [
    ("COc1cc2c(cc1Nc1ncc(Cl)c(N[C@@H]3CCCC[C@H]3NS(C)(=O)=O)n1)CCN(CC(F)(F)F)CC2", "> 7.00"),
    ("C#CCN1CCc2ccc(Nc3ncc(Cl)c(N[C@H]4[C@@H](C(N)=O)[C@@H]5C=C[C@H]4C5)n3)cc2CC1 (relative stereo)", "> 7.00"),
    ("CCN1C(=O)CCCc2cc(Nc3ncc(Cl)c(Nc4ccc(N5CCOCC5)cc4OC)n3)c(OC)cc21", "> 7.00"),
    ("CS(=O)(=O)Nc1ccccc1Nc1nc(Nc2ccc3c(c2)C2CCC3CN(C(=O)C(F)(F)F)C2)ncc1Cl (centres unmarked)", "> 7.00"),
    ("CCN1C(=O)CCCc2c1ccc(Nc1ncc(Cl)c(NC3C4C=CC(C4)C3C(N)=O)n1)c2OC (centres unmarked)", "> 7.00"),
    ("CCN1CCc2ccc(Nc3ncc(Cl)c(Nc4ccccc4-c4nccn4C)n3)cc2CC1", "> 7.00"),
]

// returns pIC50 for CNS(=O)(=O)c1ccccc1Nc1nc(Nc2ccc3c(c2)C2CC3CN(CCOC)C2)ncc1Cl (centres unmarked) with baculovirus-expressed ALK (Homo sapiens, UniProt Q9UM73); value = > 7.00

pIC50 of CN1CCNCc2cc(Nc3ncc(Cl)c(N[C@@H]4CCCC[C@H]4NS(C)(=O)=O)n3)ccc21 , assay on baculovirus-expressed ALK (Homo sapiens, UniProt Q9UM73), is > 7.00

# CCN1C(=O)OCCc2ccc(Nc3ncc(Cl)c(Nc4ccsc4C(=O)NC)n3)cc21 with baculovirus-expressed ALK (Homo sapiens, UniProt Q9UM73): pIC50 is > 7.00

Observed pIC50, baculovirus-expressed ALK (Homo sapiens, UniProt Q9UM73), CNC(=O)c1ccccc1Nc1nc(Nc2ccc3c(c2Cl)C2CCC(C3)N2C(C)C)ncc1Cl (centres unmarked) : > 7.00

The recorded pIC50 with baculovirus-expressed ALK (Homo sapiens, UniProt Q9UM73) for CNC(=O)c1cccc(C)c1Nc1nc(Nc2ccc3c(c2)C(C)(C)CCC(=O)N3)ncc1Cl was 6.00 to 7.00

Measured on baculovirus-expressed ALK (Homo sapiens, UniProt Q9UM73), CNC(=O)c1ccccc1Nc1nc(Nc2ccc3c(c2)C2CCC3CN(CCOC)C2)ncc1Cl (centres unmarked) has a documented pIC50 of > 7.00

pIC50 of CCN1C(=O)OCCc2ccc(Nc3ncc(Cl)c(Nc4ccccc4C(=O)NC)n3)cc21 , assay on baculovirus-expressed ALK (Homo sapiens, UniProt Q9UM73), is 6.00 to 7.00

So the reported pIC50 for CNS(=O)(=O)c1ccccc1Nc1nc(Nc2ccc3c(c2)COCCN3C)ncc1Cl , on baculovirus-expressed ALK (Homo sapiens, UniProt Q9UM73), turned out to be > 7.00

I looked up CN1CCN(CCO)Cc2ccc(Nc3ncc(Cl)c(N[C@@H]4CCCC[C@H]4NS(C)(=O)=O)n3)cc21 and its pIC50 for baculovirus-expressed ALK (Homo sapiens, UniProt Q9UM73) was > 7.00

Known value: baculovirus-expressed ALK (Homo sapiens, UniProt Q9UM73) pIC50 of the molecule COCCN1CCc2ccc(OC)c(Nc3ncc(Cl)c(N[C@@H]4CCCC[C@H]4NS(C)(=O)=O)n3)c2CC1 equals 5.00 to 6.00

Lab note: molecule C#CCNC(=O)c1cccc(F)c1Nc1nc(Nc2ccc3c(c2)N(CC)C(=O)CN(C(=O)OCC)C3)ncc1Cl tested on baculovirus-expressed ALK (Homo sapiens, UniProt Q9UM73); recorded pIC50 was 6.00 to 7.00
